# System: MS2 coat protein
# protocol: apparent KD of MS2 coat protein; higher = weaker reporter binding
# cond: Eterna round: R107; input ligand: theophylline 20 uM
outcome-measure: apparent KD of MS2 coat protein

| sequence-input | outcome-measure | observed |
| --- | --- | --- |
| CCGCACAUGAGGAUCACCCAUGUCAGGGAUACCAGCCCAGACAUGGGCCCUUGGCAGCUUUGUAGCUGACGAAAGUCAGCAGCGG [Omei Theo A SS A v2] | apparent KD of MS2 coat protein | 62.3 nM |
| AAAUGAGGAUCACCCAUGUAACAACGGGAAGGAGCGCCAAACAAGGCAGGUAGGUCGCCCACAUGAGGAUCACCCAUGUGUUGGG [Exclusion Arginine A GF 28] | apparent KD of MS2 coat protein | 105 nM |
| UGUACAGACAUCGAAUUCCUAUGUGCUGAAGGAGCGUCGUUGACGACAGGUAGGUCGCAGUUAACAUGAGGAUCACCCAUGUACA [Arg A Ex t5] | apparent KD of MS2 coat protein | 82.3 nM |
| UAAUCAGUGCCGGUUCUCGGAUCCUCAUGUCGAGGACCGGUACGGCCGCCACUCGGAACAUGAGGAUCACCCAUGUAAUAAUAAU [#10 Exclusion Tryptophan A] | apparent KD of MS2 coat protein | 101 nM |
| AAACGUUGCUCAGAUACCAGACAUGAGGAUCACCCAUGUACCAAGGUAACCGAAAGGCAUGUCCCUUGGCAGCUGAGCAACGAAA [MAT - Exclusion Theophlline B - Mod of Eli - D16] | apparent KD of MS2 coat protein | 21.4 nM |
| AAACGUUGCUGCGAUACCAGACAUGAGGAUCACCCAUGUACCAAGGUACGAAAAUAACAUGUCCCUUGGCAGCGCAGCAACGAAA [MAT - Exclusion Theophlline B - Mod of Eli - D6] | apparent KD of MS2 coat protein | 29.7 nM |
| ACAUGAGGAUCACCCAUGUAGAAAGAUCCUCGAGGACCGGUACGGCCGCCACUCGAGUGGCAGUGUGUGCAGAAAAUGCGCGCGC | apparent KD of MS2 coat protein | 92.2 nM |
| CCUUAAUAUAGAAGGAGCGCGCUAACAUGAGGAUCACCCAUGUAAAGGGUUUUGGGCUUAGCGCAGGUAGGUCGCUAUAAGAACC [Arg B Ex t2] | apparent KD of MS2 coat protein | 95 nM |
| GGCCAUGGAAACAUGGCGGCGGCGUAUGCGCGAGGACCGGUACGGCCGCCACUCGGGCGACAUGAGGAUCACCCAUGUUCCUCAU [ETA NP+V+V2 #25] | apparent KD of MS2 coat protein | 243 nM |
| ACAUGAGGAUCACCCAUGUCUGCCACUGAUACCAGCGGAUGCCAACGCCCUUGGCAGCAGAACAUGAGGAUCACCCAUGUAGGCA [Same State Theophylline A GF25] | apparent KD of MS2 coat protein | 303 nM |
| AUCGUACCUCAUGAUACCAGCAUGUGAUCAUAACAUGAGGAUCACCCAUGUAAUCAGUGAUGCCCUUGGCAGCGUAGUCGAUACA [Same State - Theophylline B (Freestyle 8)] | apparent KD of MS2 coat protein | 161 nM |

====

# System: MS2 coat protein
# protocol: apparent KD of MS2 coat protein; designed switch direction (-1 OFF switch, 1 ON switch): -1; higher = weaker reporter binding
# cond: input ligand: none
As shown below, each of these sequences has a reported apparent KD of MS2 coat protein value.

| sequence-input | apparent KD of MS2 coat protein |
| --- | --- |
| CCAAUGUAAGGAUAUCGUGCAAGUUUCAAAAGAGGCUUGUGCGAGAAGGUACAUGAGGAUCACCCAUGUAGGUU [Omei Ex4 B2] (Eterna round: R97, puzzle: Exclusion 4) | 78.4 nM |
| AUCAACGUGUUAGGAUAUAAGCCUAAAAGAGACUUAGAAGGGACAUGAGGAUCACCCAUGUCGGGCGCCCAAGCUAUGCGACCU [Eternabot solution 4] (Eterna round: R96, puzzle: Exclusion NG 1) | 26.3 nM |
| AUAGUGUGAGGAUAUCGGACCAGUCCAGUUAGGAGCAGGAUCGAGAAGGUACAUGAGGAUCACCCAUGUGACCA [Eternabot (L2) Solution 8] (Eterna round: R97, puzzle: Exclusion 4) | 16.8 nM |
| CCUCGUGCACGAGGAUAUUGGAAAGGAAGUGUACGAGAAGGCGUGCCGAGGGAACAUGAGGAUCACCCAUGUGGCCUCAUCACA [PowerStrip EXNG 1.13] (Eterna round: R96, puzzle: Exclusion NG 1) | 152 nM |
| GACCAGGUAGGAUAUGCUGGGUCGGACUUGAGGAUCACCCAAGUGGCCAAAGUGCGUCCCGCAGAAGGGCCGAAAA [Inanorxeti] (Eterna round: R97, puzzle: Exclusion 5) | 827 nM |
| AAAUCCCGAGGAUAUACAUGAGGAUCACCCAUGUAAUCAAACAGGGCAAAUUGAUCCGGUAGAAGGCGGACAAU [EX3 A.26] (Eterna round: R97, puzzle: Exclusion 3) | 13.5 nM |
| AGCUGUGGCCGAGGAUAUCCAACCUUAAAUACCGACGUAUAGUCGGACAUGAGGAUCACCCAUGUGGAGAAGGCGGUCUCAGCA [Eli eng2 - 039] (Eterna round: R96, puzzle: Exclusion NG 2) | 47.1 nM |
| AGCUGUGGCCGAGGAUAUCCACAUGAGGAUCACCCAUGUUGAUACGCCGUUAGGCGAUAUAGAAGGGAGAAGGCGGUCUCAGCA [Eli eng2 - 050] (Eterna round: R96, puzzle: Exclusion NG 2) | 13.7 nM |
| UUUAAUUUAAUUAAGAUCACAUGAGGAUCACCCAUGUAUAUAUAGGAUAUCAGCUCGUUUAGAGCUGAGAAGGAUAUAUACAUA [ExNG3/4-A2] (Eterna round: R96, puzzle: Exclusion NG 3) | 58.2 nM |
| AGCGAGACAGGAUAUACUUGAGGAUCACCCAAGUCACAAAGGGUCUCACUCUUCACUAGUAGAAGGGUCGUGUA [Lereer] (Eterna round: R97, puzzle: Exclusion 3) | 18.7 nM |
| CAGUACUGAGGAUAUACAUGAGGAUCACCCAUGUCUUCCAGCUAGGAUACUAGCAAAUGUAGAAGGCAGUACUG [Mat - Exclusion 3 - Eli Mod - D9] (Eterna round: R97, puzzle: Exclusion 3) | 68.1 nM |
| GCUGGUCGAGGAUAUACAAUCGUGCUUCGGCACGUAAGAUCACAUGAGGAUCACCCAUGUAGAAGGUGACCAGC [E2/1-B3] (Eterna round: R97, puzzle: Exclusion 2) | 25.1 nM |
| CCGGUUGGCGCAGGAUAUACAUGAGGAUCACCCAUGUUCAUGAGGAUCGCCCAUGAGUUUUUGUUGUAGAAGGGUGGCCCGGCC (Eterna round: R96, puzzle: Exclusion NG 2) | 84 nM |
| UUUUUAUAUGAAGGAUAUACUUAACAUGAGGAUCACCCAUGUGGUGUUGUGAGUGAGUGAGUUUAGUAGAAGGUCAAGAAUUUU [JMF's solution 34] (Eterna round: R96, puzzle: Exclusion NG 2) | 324 nM |
| GGAAGGCGAGGAUAUACAAUAAAGAAAGGGAAAGACGUGAGACAUGAGGAUCACCCAUGUAGAAGGCGCGGAGA [AK-MS2ROC-r4-exclusion2-12] (Eterna round: R97, puzzle: Exclusion 2) | 32.4 nM |
| UGUUAAGCAGGAUAUACGUUGUCCUAUUAAACUAGUGAAGGACAUGAGGAUCACCCAUGUAGAAGGGCUAAGCG [Eternabot (L2) Solution 70] (Eterna round: R97, puzzle: Exclusion 2) | 83.7 nM |
| AAUAAUUGUGACUUGGGUGACAUGAGGAUCACCCAUGUUACAAGCUUGUUGCUCGUCUUAUAAUUAACCCAUGUCAC [LRO Sensor-off var1-24 mod of Stov1-13-A1 by Brourd] (Eterna round: R97, puzzle: Sensor, turn-off variant 1) | 21.9 nM |
| AAUGUGUGAGGAUAUUAGUUGUACGUCAAUAGACGUAUAAGUGAGAAGGCACAUGAGGAUCACCCAUGUUCCUG [Omei Ex4 Mod of Mat's R95 mod of Omei v6] (Eterna round: R97, puzzle: Exclusion 4) | 24.9 nM |

====

# Test system: MS2 coat protein
# protocol: apparent KD of MS2 coat protein; designed switch direction (-1 OFF switch, 1 ON switch): -1; higher = weaker reporter binding
# cond: input ligand: FMN 200 uM

| sequence-input | experimental-target | apparent KD of MS2 coat protein |
| --- | --- | --- |
| GACAUCGCAGGAUAUUAGGGUUUGUACAUGAGGAUCACCCAUGUUAAUUGGGUUAAUGUUUAAGAAGGGCGGUGUC [JR_EX5_Sub017] (Eterna round: R97, puzzle: Exclusion 5) | MS2 coat protein | 528 nM |
| GGGCCGCAAGUAAGGAUAUCCCUUAAAUUGUGAGCGGAGAAGGUACUUGAGGAUCACCCAAGUAUAGAAGAAAA [Arinbear] (Eterna round: R97, puzzle: Brourd's mod of Exclusion 4) | MS2 coat protein | 54.2 nM |
| UGACGAGUAGGAUAUUGGACUUGCGACAUGAGGAUCACCCAUGUGACGUCAACGUGGCACCAAGAAGGGCUACGUC [Gelareusdi] (Eterna round: R96, puzzle: Exclusion 5) | MS2 coat protein | 53.4 nM |

Entry source: the supplement of paper PMC9170038
